From: patent US11820766B2

target: human MGL from HeLa cells (Homo sapiens); construct: combining endogenously expressed MGL from HeLa cells with test compounds; endogenous in cells; host or cells: HeLa cells / cell homogenates; test: In vitro MGL activity assay: [glycerol-1,3-3H]-oleyl glycerol cleavage by MGL from HeLa cells; format: biochemical; settings: 300 nM [Glycerol-1,3-3H]-oleyl glycerol, one hour
Sequence (Q99685 whole entry): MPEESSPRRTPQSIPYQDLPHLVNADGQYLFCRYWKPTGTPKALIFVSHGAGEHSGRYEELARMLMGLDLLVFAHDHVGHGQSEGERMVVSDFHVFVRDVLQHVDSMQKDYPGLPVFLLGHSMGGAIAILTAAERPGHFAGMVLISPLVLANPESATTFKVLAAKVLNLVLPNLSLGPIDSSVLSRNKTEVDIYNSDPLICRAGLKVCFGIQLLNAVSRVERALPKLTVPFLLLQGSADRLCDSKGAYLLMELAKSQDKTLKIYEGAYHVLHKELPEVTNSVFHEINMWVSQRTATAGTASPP
pIC50: −log10 of the molar value.

- compound: "C[C@H]1c2nn(C)c(-c3cc(F)c(F)c(F)c3)c2CCN1C(=O)c1cc2ccccc2nn1"
  pIC50: 6.95
- compound: "C[C@H]1c2nn(C)c(-c3cc(F)c(F)c(F)c3)c2CCN1C(=O)c1cnn2cccnc12"
  pIC50: 6.95
- compound: "C[C@H]1c2nn(C)c(-c3cc(F)c(F)c(F)c3)c2CCN1C(=O)c1n[nH]c2cnccc12"
  pIC50: 7.25
- compound: "C[C@H]1c2nn(C)c(-c3cc(F)c(F)c(F)c3)c2CCN1C(=O)c1cnn(C)c1C1CC1(F)F (single isomer, unassigned) [Example 337]"
  pIC50: 8.09
- compound: "Cc1nn2ccnc(C)c2c1C(=O)N1CCc2c(nn(C)c2-c2cc(F)c(F)c(F)c2)[C@@H]1C"
  pIC50: 7.47
- compound: "C[C@H]1c2nn(C)c(-c3cc(F)c(F)c(F)c3)c2CCN1C(=O)c1nn(C)c2ncccc12"
  pIC50: 7.54
- compound: "C[C@H]1c2nn(C)c(-c3cc(F)c(F)c(F)c3)c2CCN1C(=O)c1cnn(C)c1C1CC1(F)F (stereo partly drawn) [Example 336]"
  pIC50: 8.06
- compound: "Cc1ccn2c(C(=O)N3CCc4c(nn(C)c4-c4cc(F)c(F)c(F)c4)[C@@H]3C)c(C)nc2c1"
  pIC50: 7.30
- compound: "C[C@H]1c2nn(C)c(-c3cc(F)c(F)c(F)c3)c2CCN1C(=O)c1ncnc2ccccc12"
  pIC50: 8.21
- compound: "Cc1[nH]c2ncccc2c1C(=O)N1CCc2c(nn(C)c2-c2cc(F)c(F)c(F)c2)[C@@H]1C"
  pIC50: 7.52
- compound: "Cc1nc2c(C)cc(F)cn2c1C(=O)N1CCc2c(nn(C)c2-c2cc(F)c(F)c(F)c2)[C@@H]1C"
  pIC50: 7.57
- compound: "C[C@H]1c2nn(C)c(-c3cc(F)c(F)c(F)c3)c2CCN1C(=O)c1cccc2c1CCCO2"
  pIC50: 7.81
- compound: "C[C@H]1c2nn(C)c(-c3ccc(C(F)(F)F)nc3)c2CCN1C(=O)c1ccc2ncccc2c1"
  pIC50: 6.57
- compound: "C[C@H]1c2nn(C)c(-c3cc(F)c(F)c(F)c3)c2CCN1C(=O)c1cccc2c1OCCC2"
  pIC50: 8.85
- compound: "C[C@H]1c2nn(C)c(-c3cc(F)c(F)c(F)c3)c2CCN1C(=O)c1cnc(-c2ccccn2)n1C"
  pIC50: 6.34

====

Parameter IC50: see the listing below.
target: human MGL from HeLa cells (Homo sapiens); construct: combining endogenously expressed MGL from HeLa cells with test compounds; endogenous in cells; host or cells: HeLa cells / cell homogenates; test: In vitro MGL activity assay: [glycerol-1,3-3H]-oleyl glycerol cleavage by MGL from HeLa cells; format: biochemical; settings: 300 nM [Glycerol-1,3-3H]-oleyl glycerol, one hour incubation
test-readout: IC50 (nM)

- compound: "C[C@@H]1c2nn(C)c(-c3ccccc3)c2CCN1C(=O)c1ccc2ncccc2c1 (single isomer, unassigned)"
  target-system: "human MGL from HeLa cells (Homo sapiens)"
  bound-operator: "="
  value: 8240
- compound: "Cn1nc2c(c1-c1cccc(OC(F)F)c1)CCN(C(=O)c1ccc3ncccc3c1)C2"
  target-system: "human MGL from HeLa cells (Homo sapiens)"
  bound-operator: "="
  value: 973
- compound: "Cc1c(F)cc(-c2c3c(nn2C)[C@H](C)N(C(=O)c2ccc4nccnc4c2)CC3)cc1F"
  target-system: "human MGL from HeLa cells (Homo sapiens)"
  bound-operator: "="
  value: 133
- compound: "Cn1nc2c(c1-c1ccccc1)CCN(C(=O)c1ccc3occc3c1)C2"
  target-system: "human MGL from HeLa cells (Homo sapiens)"
  bound-operator: "="
  value: 482
- compound: "C[C@H]1c2nn(C)c(-c3cc(F)c(F)c(F)c3)c2CCN1C(=O)c1noc2ccccc12"
  target-system: "human MGL from HeLa cells (Homo sapiens)"
  bound-operator: "="
  value: 3.17
- compound: "C[C@H]1c2nn(C)c(-c3cc(F)c(F)c(F)c3)c2CCN1C(=O)c1ccc(F)c(-n2cnnc2)c1"
  target-system: "human MGL from HeLa cells (Homo sapiens)"
  bound-operator: "="
  value: 1400
- compound: "COc1ccccc1C(=O)N1CCc2c(nn(C)c2-c2cc(F)c(F)c(F)c2)[C@@H]1C"
  target-system: "human MGL from HeLa cells (Homo sapiens)"
  bound-operator: "="
  value: 12.6
- compound: "Cn1nc2c(c1-c1ccccc1)CCN(C(=O)c1ccc3ocnc3c1)C2"
  target-system: "human MGL from HeLa cells (Homo sapiens)"
  bound-operator: "="
  value: 4180
- compound: "C[C@H]1c2nn(C)c(-c3cccc(Cl)c3)c2CCN1C(=O)c1cc(Br)c2nccnc2c1"
  target-system: "human MGL from HeLa cells (Homo sapiens)"
  bound-operator: "="
  value: 10.6
- compound: "Cc1nc2sccn2c1C(=O)N1CCc2c(nn(C)c2-c2ccccc2)C1"
  target-system: "human MGL from HeLa cells (Homo sapiens)"
  bound-operator: "="
  value: 1090
- compound: "C[C@H]1c2nn(C)c(-c3cc(F)c(F)c(F)c3)c2CCN1C(=O)c1cn(C)c2ncccc12"
  target-system: "human MGL from HeLa cells (Homo sapiens)"
  bound-operator: "="
  value: 87.6
- compound: "C[C@H]1c2nn(C)c(-c3cccnc3)c2CCN1C(=O)c1ccc2nccnc2c1"
  target-system: "human MGL from HeLa cells (Homo sapiens)"
  bound-operator: "="
  value: 1300
- compound: "Cn1nc2c(c1-c1ccccc1)CCN(C(=O)c1coc3ccccc13)C2"
  target-system: "human MGL from HeLa cells (Homo sapiens)"
  bound-operator: "="
  value: 750
- compound: "C[C@H]1c2nn(C)c(-c3cc(F)c(F)c(F)c3)c2CCN1C(=O)c1cccc2cn[nH]c12"
  target-system: "human MGL from HeLa cells (Homo sapiens)"
  bound-operator: "="
  value: 34.2
- compound: "Cn1nc2c(c1-c1ccccc1)CCN(C(=O)c1cccc3c1OCO3)C2"
  target-system: "human MGL from HeLa cells (Homo sapiens)"
  bound-operator: "="
  value: 4000
- compound: "Cn1nc2c(c1-c1ccccc1)CCN(C(=O)c1noc3ccccc13)C2"
  target-system: "human MGL from HeLa cells (Homo sapiens)"
  bound-operator: "="
  value: 32.2
- compound: "Cn1nc2c(c1-c1ccccc1)CCN(C(=O)c1cccc3cn[nH]c13)C2"
  target-system: "human MGL from HeLa cells (Homo sapiens)"
  bound-operator: "="
  value: 1630
- compound: "Cn1nc2c(c1-c1ccccc1)CCN(C(=O)c1cnn3ccccc13)C2"
  target-system: "human MGL from HeLa cells (Homo sapiens)"
  bound-operator: "="
  value: 613
- compound: "C[C@@H]1c2nn(C)c(-c3cc(F)cc(Cl)c3)c2CCN1C(=O)c1ccc2nccnc2c1"
  target-system: "human MGL from HeLa cells (Homo sapiens)"
  bound-operator: ">"
  value: 10000
- compound: "Cn1nc2c(c1-c1ccccc1)CCN(C(=O)c1cccc3ccsc13)C2"
  target-system: "human MGL from HeLa cells (Homo sapiens)"
  bound-operator: "="
  value: 47.8
- compound: "COc1cnccc1C(=O)N1CCc2c(nn(C)c2-c2cc(F)c(F)c(F)c2)[C@@H]1C"
  target-system: "human MGL from HeLa cells (Homo sapiens)"
  bound-operator: "="
  value: 87.1
- compound: "Cn1nc2c(c1-c1ccccc1)CCN(C(=O)c1cccc3c1ccn3C)C2"
  target-system: "human MGL from HeLa cells (Homo sapiens)"
  bound-operator: "="
  value: 15.6
- compound: "C[C@H]1c2nn(C)c(-c3cc(F)c(F)c(F)c3)c2CCN1C(=O)c1ncn(-c2ncccc2F)n1"
  target-system: "human MGL from HeLa cells (Homo sapiens)"
  bound-operator: "="
  value: 41.7
- compound: "C[C@@H]1c2nn(C)c(-c3cccc(Cl)c3)c2CCN1C(=O)c1cnc2ccoc2c1 (single isomer, unassigned)"
  target-system: "human MGL from HeLa cells (Homo sapiens)"
  bound-operator: ">"
  value: 10000
- compound: "C[C@H]1c2nn(C)c(-c3cc(F)c(F)c(F)c3)c2CCN1C(=O)c1cn(C)c2cccnc12"
  target-system: "human MGL from HeLa cells (Homo sapiens)"
  bound-operator: "="
  value: 130
- compound: "Cn1nc2c(c1-c1ccccc1)CCN(C(=O)c1ccc3[nH]ncc3c1)C2"
  target-system: "human MGL from HeLa cells (Homo sapiens)"
  bound-operator: "="
  value: 56.2
- compound: "C[C@H]1c2nn(C)c(-c3cc(F)c(F)c(F)c3)c2CCN1C(=O)c1cccn2cncc12"
  target-system: "human MGL from HeLa cells (Homo sapiens)"
  bound-operator: "="
  value: 5.56
- compound: "C[C@H]1c2nn(C)c(-c3cc(F)c(F)c(F)c3)c2CCN1C(=O)c1cn(C)c2cnccc12"
  target-system: "human MGL from HeLa cells (Homo sapiens)"
  bound-operator: "="
  value: 78.9
- compound: "Cn1nc2c(c1-c1cc(F)cc(F)c1)CCN(C(=O)c1ccc3ncccc3c1)C2"
  target-system: "human MGL from HeLa cells (Homo sapiens)"
  bound-operator: "="
  value: 52.4
- compound: "CC1c2nn(C)c(-c3ccc4c(ccn4C)c3)c2CCN1C(=O)c1ccc2ncccc2c1 (centres unmarked)"
  target-system: "human MGL from HeLa cells (Homo sapiens)"
  bound-operator: "="
  value: 631
- compound: "C[C@H]1c2nn(C)c(-c3cc(F)c(F)c(F)c3)c2CCN1C(=O)c1ccnc2c(F)cccc12"
  target-system: "human MGL from HeLa cells (Homo sapiens)"
  bound-operator: "="
  value: 2.69
- compound: "C[C@H]1c2nn(C)c(-c3cc(F)cc(F)c3)c2CCN1C(=O)c1ccccc1-n1nccn1"
  target-system: "human MGL from HeLa cells (Homo sapiens)"
  bound-operator: "="
  value: 71.7
